- methodSummary: Toxicokinetics in the 28 day dog study of DIO-902 (with racemic ketoconazole group a)
- assayConditions: male, beagle, plasma, po, 20 mg/kg, Tmax Range, dogs, 20 mg/kg oral, day 28, M
measuredMetric: Tmax

Problem: Entry under review: `CC(=O)N1CCN(c2ccc(OC[C@@H]3CO[C@@](Cn4ccnc4)(c4ccc(Cl)cc4Cl)O3)cc2)CC1` . Reported Tmax?
Solution: 2 to 4 h

* * *

- methodSummary: Toxicokinetics of racemic ketoconazole in another 28-day dog study (b)
- assayConditions: female, beagle, dog, plasma, po, 40 mg/kg, AUC(0-12), dogs, study b, powder, dose and days not printed in the row (40 mg/kg, day 28), F; footnote: AUC data is for 0-24 h
measuredMetric: AUC(0-t) (µg·h/mL)
Your answer is read as µg·h/mL, so omit the unit and give the number.

Problem: Entry under review: CC(=O)N1CCN(c2ccc(OCC3COC(Cn4ccnc4)(c4ccc(Cl)cc4Cl)O3)cc2)CC1 (racemic) [Racemic ketoconazole] . Reported AUC(0-t)?
Solution: 639

* * *

- methodSummary: Toxicokinetics of racemic ketoconazole in another 28-day dog study (b)
- assayConditions: both, beagle, dog, plasma, po, 40 mg/kg, Cmax, dogs, 40 mg/kg, day 28
measuredMetric: Cmax

Problem: Entry under review: CC(=O)N1CCN(c2ccc(OCC3COC(Cn4ccnc4)(c4ccc(Cl)cc4Cl)O3)cc2)CC1 (racemic) [Racemic ketoconazole] . Reported Cmax?
Solution: 42800 to 46800 ng/mL

* * *

- methodSummary: Toxicokinetics in the 28 day dog study of DIO-902 (with racemic ketoconazole group a)
- assayConditions: both, beagle, plasma, oral, 20 mg/kg, Tmax values, dogs, 2, 6.5 and 20 mg/kg, Day 1
measuredMetric: Tmax

Problem: Entry under review: CC(=O)N1CCN(c2ccc(OC[C@@H]3CO[C@@](Cn4ccnc4)(c4ccc(Cl)cc4Cl)O3)cc2)CC1 [DIO-902] . Reported Tmax?
Solution: 1 to 8 h

* * *

- methodSummary: Toxicokinetics in the 28 day dog study of DIO-902 (with racemic ketoconazole group a)
- assayConditions: female, beagle, plasma, po, 20 mg/kg, Drug concentration in plasma, dogs, 20 mg/kg oral, day 28, F, 2 h
measuredMetric: concentration at 2 h (µg/mL)
Your answer is read as µg/mL, so omit the unit and give the number.

Problem: Entry under review: CC(=O)N1CCN(c2ccc(OC[C@@H]3CO[C@@](Cn4ccnc4)(c4ccc(Cl)cc4Cl)O3)cc2)CC1 [DIO-902] . Reported concentration at 2 h?
Solution: 2.43

* * *

- methodSummary: Toxicokinetics of racemic ketoconazole in another 28-day dog study (b)
- assayConditions: female, beagle, dog, plasma, po, 40 mg/kg, Drug concentration in plasma, dogs, study b, powder, 40 mg/kg oral, day 1, F, 12 h
- Excerpt: Two groups of three male and three female dogs per group were studied. Toxicokinetic samples were collected on Day 1 and during Weeks 2 and 4. […] For the following Table: *Days of treatment.
measuredMetric: concentration at 12 h (ng/mL)
Your answer is read as ng/mL, so omit the unit and give the number.

Problem: Entry under review: CC(=O)N1CCN(c2ccc(OCC3COC(Cn4ccnc4)(c4ccc(Cl)cc4Cl)O3)cc2)CC1 (racemic) [Racemic ketoconazole] . Reported concentration at 12 h?
Solution: 1550

* * *

- methodSummary: Toxicokinetics in the 28 day dog study of DIO-902 (with racemic ketoconazole group a);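 note: beagle dogs dosed orally once daily within a 28-day GLP study, 3 animals per sex per group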
- assayConditions: female, beagle, plasma, po, 2 mg/kg, Drug concentration in plasma, dogs, 2 mg/kg oral, day 1, F, 2 h
measuredMetric: concentration at 2 h (ng/mL)
Your answer is read as ng/mL, so omit the unit and give the number.

Problem: Entry under review: CC(=O)N1CCN(c2ccc(OC[C@@H]3CO[C@@](Cn4ccnc4)(c4ccc(Cl)cc4Cl)O3)cc2)CC1 [DIO-902] . Reported concentration at 2 h?
Solution: 270
